Test system: MDR1 (human)
Assay: Efflux ratio of apparent permeability from basolateral to apical side over apical to basolateral side in MDCK cells expressing human MDR1
Assay type: ADME, cell-based, Canis lupus familiaris
Conditions: dog
quantity: efflux ratio

input smiles: C[C@H](Nc1nccc(Nc2cc(C3CC3)[nH]n2)n1)c1ccc2[nH]ccc2n1
observed value: 59

Kindly note the recorded efflux ratio for C[C@H](Nc1nccc(Nc2cc(C3CC3)[nH]n2)n1)c1ccc2[nH]ccc2c1 , which is 27.7

---

Test: Kinetic solubility at pH 7.4 by high throughput assay
Assay type: physicochemical
Details: buffer, read-out: Kinetic_solubility
Would you mind labelling by solubility kinetic? At or over 70 µM is label 1, under is label 0.

Kindly determine if solubility kinetic recorded for C[C@H](Nc1nccc(Nc2cc([C@@H]3C[C@H]3F)[nH]n2)n1)c1ccc2[nH]ccc2n1 is above or exactly 70 µM. label 1

Kindly determine if solubility kinetic recorded for C[C@H](Nc1nccc(Nc2cc(C3CC3)[nH]n2)n1)c1cc2cc[nH]c2cn1 is above or exactly 70 µM. label 1

Kindly determine if solubility kinetic recorded for C[C@H](Nc1nccc(Nc2cc([C@H]3C[C@@H]3F)[nH]n2)n1)c1ccc2[nH]ccc2n1 is above or exactly 70 µM. label 1

Kindly determine if solubility kinetic recorded for C[C@H](Nc1nccc(Nc2cc(C3CC3)[nH]n2)n1)c1ccc2[nH]ccc2n1 is above or exactly 70 µM. label 1

Kindly determine if solubility kinetic recorded for C[C@H](Nc1nccc(Nc2cc(C3CC3)[nH]n2)n1)c1nc2cc[nH]c2cc1F is above or exactly 70 µM. label 0

---

Items are presented alongside their recorded half-life.
Assay: Half life in nude mouse at 2 mg/kg, iv
Assay type: ADME, organism-based
Settings: in vivo
Please answer in the form of a number followed by its unit of measurement.

input smiles: C[C@H](Nc1nccc(Nc2cc(C3CC3)[nH]n2)n1)c1ccc2[nH]ccc2c1
half-life: 19.2 min

Kindly note the recorded half-life for C[C@H](Nc1nccc(Nc2cc(C3CC3)[nH]n2)n1)c1ccc2[nH]ccc2n1 , which is 37.8 min

---

Tested on: MDR1 (human)
Experiment: Apparent permeability from basolateral to apical side in MDCK cells expressing human MDR1
Type: ADME, cell-based, Canis lupus familiaris
Conditions: dog
quantity: Papp B→A (×10⁻⁶ cm/s)
Respond with the bare value in ×10⁻⁶ cm/s.

input smiles: C[C@H](Nc1nccc(Nc2cc(C3CC3)[nH]n2)n1)c1ccc2[nH]ccc2c1
quantity: Papp B→A
result units: ×10⁻⁶ cm/s
observed value: 14.6

Then this compound:
Record C[C@H](Nc1nccc(Nc2cc(C3CC3)[nH]n2)n1)c1ccc2[nH]ccc2n1 ; system MDR1 (human); Papp B→A = 9.8

---

Items are presented alongside their recorded IC50.
Target: Serine/threonine-protein kinase PAK 1/PAK 2/PAK 3 (Homo sapiens, UniProt O75914+Q13177+Q13153)
Assay: Inhibition of PAK1/2/3 in human EBC1 cells assessed as MEK1 phosphorylation level at Serine298 residue incubated for 2 hrs by HTRF assay
Type: cell-based
Respond with the bare value in µM.

input smiles: CC[C@H](Nc1nccc(Nc2cc(C3CC3)[nH]n2)n1)c1ccc2[nH]ccc2n1
result units: µM
IC50: 0.18

Kindly note the recorded IC50 for C[C@H](Nc1nccc(Nc2cc(C3CC3)[nH]n2)n1)c1ccc2[nH]ccc2n1 , which is 0.051

Kindly note the recorded IC50 for C[C@H](Nc1nccc(Nc2cc(C3CC3)[nH]n2)n1)c1ccc2[nH]cc(Cl)c2n1 , which is 0.16

Kindly note the recorded IC50 for C[C@H](Nc1nccc(Nc2cc(C3CC3)[nH]n2)n1)c1ccc2[nH]ccc2c1 , which is 0.12

---

Items are presented alongside their recorded clearance.
Assay: Plasma clearance in nude mouse at 2 mg/kg, iv
Assay type: ADME, organism-based
Please answer in the form of a number followed by its unit of measurement.

input smiles: C[C@H](Nc1nccc(Nc2cc(C3CC3)[nH]n2)n1)c1ccc2[nH]ccc2c1
clearance: 160 mL/min/kg

Then this compound:
Kindly note the recorded clearance for C[C@H](Nc1nccc(Nc2cc(C3CC3)[nH]n2)n1)c1ccc2[nH]ccc2n1 , which is 48 mL/min/kg

---

Assay: Cmax in nude mouse at 25 mg/kg, po
Format: ADME, organism-based
Parameters: dose 25 mg/kg, route oral
Settings: in vivo
quantity: Cmax (µM)
Respond with the bare value in µM.

Kindly note the recorded Cmax for C[C@H](Nc1nccc(Nc2cc(C3CC3)[nH]n2)n1)c1ccc2[nH]ccc2n1 , which is 4.7

---

Experiment: Tmax in nude mouse at 25 mg/kg, po
Assay type: ADME, organism-based
Conditions: in vivo
quantity: Tmax (min)
Respond with the bare value in min.

Kindly note the recorded Tmax for C[C@H](Nc1nccc(Nc2cc(C3CC3)[nH]n2)n1)c1ccc2[nH]ccc2n1 , which is 34.8

---

Target: Serine/threonine-protein kinase PAK 1 (Homo sapiens, UniProt Q13153)
Sequence (Q13153 whole entry, the tested form may be a part): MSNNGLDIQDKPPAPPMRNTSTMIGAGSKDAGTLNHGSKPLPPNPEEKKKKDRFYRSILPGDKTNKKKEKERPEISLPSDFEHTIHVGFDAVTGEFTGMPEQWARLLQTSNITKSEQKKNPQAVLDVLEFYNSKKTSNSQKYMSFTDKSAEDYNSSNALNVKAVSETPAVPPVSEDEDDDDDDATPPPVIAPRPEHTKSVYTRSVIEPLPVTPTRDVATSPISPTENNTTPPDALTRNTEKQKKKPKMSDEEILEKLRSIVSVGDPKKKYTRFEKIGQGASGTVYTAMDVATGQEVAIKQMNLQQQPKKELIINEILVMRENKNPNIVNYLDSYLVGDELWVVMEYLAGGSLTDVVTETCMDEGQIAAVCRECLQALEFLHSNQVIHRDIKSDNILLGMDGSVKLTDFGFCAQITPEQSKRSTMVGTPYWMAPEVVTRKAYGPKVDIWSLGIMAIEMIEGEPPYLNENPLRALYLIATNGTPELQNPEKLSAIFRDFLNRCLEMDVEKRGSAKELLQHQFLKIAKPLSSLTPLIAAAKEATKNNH
Assay: Inhibition of recombinant human GST-tagged PAK1 kinase domain expressed in baculovirus expression system assessed as suppression of phosphorylation of coumarin/fluorescein-labelled FRET peptide substrate at Ser/Thr19 residues preincubated with substrate for 10 mins followed by enzyme addition measured after 60 mins by Z-Lyte assay
quantity: IC50 (nM)
Respond with the bare value in nM.

Kindly note the recorded IC50 for C[C@@H](Nc1nccc(Nc2cc(C3CC3)[nH]n2)n1)c1ccc2[nH]ccc2n1 , which is 685

---

Assay: Apparent permeability from apical to basolateral side in MDCK cells
Assay type: ADME, cell-based, Canis lupus familiaris
Conditions: dog
Items are presented alongside their recorded Papp A→B.
Respond with the bare value in ×10⁻⁶ cm/s.

input smiles: C[C@H](Nc1nccc(Nc2cc(C3CC3)[nH]n2)n1)c1ccc2[nH]ccc2c1
result units: ×10⁻⁶ cm/s
Papp A→B: 2

Kindly note the recorded Papp A→B for C[C@H](Nc1nccc(Nc2cc([C@H]3C[C@@H]3F)[nH]n2)n1)c1ccc2[nH]ccc2n1 , which is 3.7

Kindly note the recorded Papp A→B for C[C@H](Nc1nccc(Nc2cc(C3CC3)[nH]n2)n1)c1ccc2[nH]ccc2n1 , which is 4.3

Kindly note the recorded Papp A→B for C[C@H](Nc1nccc(Nc2cc(C3CC3)[nH]n2)n1)c1nc2cc[nH]c2cc1F , which is 8.3

Kindly note the recorded Papp A→B for C[C@H](Nc1nccc(Nc2cc(C3CC3)[nH]n2)n1)c1cc2cc[nH]c2cn1 , which is 0.9

Kindly note the recorded Papp A→B for C[C@H](Nc1nccc(Nc2cc([C@@H]3C[C@H]3F)[nH]n2)n1)c1ccc2[nH]ccc2n1 , which is 4.2

---

Biological target: Serine/threonine-protein kinase PAK 4 (Homo sapiens, UniProt O96013)
Sequence (O96013 whole entry, the tested form may be a part): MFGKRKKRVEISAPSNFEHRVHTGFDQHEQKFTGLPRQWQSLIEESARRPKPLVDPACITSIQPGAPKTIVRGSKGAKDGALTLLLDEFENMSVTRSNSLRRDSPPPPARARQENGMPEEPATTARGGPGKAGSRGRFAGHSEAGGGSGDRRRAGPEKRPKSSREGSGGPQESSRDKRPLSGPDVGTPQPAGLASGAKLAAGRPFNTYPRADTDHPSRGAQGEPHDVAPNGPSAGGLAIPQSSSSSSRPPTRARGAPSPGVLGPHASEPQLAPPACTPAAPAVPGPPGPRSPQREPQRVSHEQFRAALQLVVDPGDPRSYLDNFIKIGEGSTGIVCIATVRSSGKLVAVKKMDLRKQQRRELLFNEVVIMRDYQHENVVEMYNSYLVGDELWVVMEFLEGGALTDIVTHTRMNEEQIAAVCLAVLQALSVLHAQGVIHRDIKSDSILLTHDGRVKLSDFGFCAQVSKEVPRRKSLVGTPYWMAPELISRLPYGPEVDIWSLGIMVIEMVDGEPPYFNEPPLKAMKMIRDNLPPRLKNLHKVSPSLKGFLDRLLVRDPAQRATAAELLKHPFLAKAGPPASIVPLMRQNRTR
Assay: Inhibition of human recombinant GST-tagged PAK4 kinase domain (295 to 591 residues) expressed in baculovirus expression system assessed as suppression of phosphorylation of coumarin/fluorescein-labelled FRET peptide substrate at Ser/Thr19 residues preincubated with substrate for 10 mins followed by enzyme addition measured after 60 mins by Z-Lyte assay
quantity: pKi
A value of pKi is the negative decimal logarithm of a concentration given in moles per litre.

Kindly note the recorded pKi for c1cc(Nc2cc(C3CC3)[nH]n2)nc(NCc2ccc3[nH]ccc3n2)n1 , which is 6.30

---

Experiment: Volume of distribution at steady state in nude mouse at 2 mg/kg, iv
Format: ADME, organism-based
Settings: in vivo, read-out: Vdss
quantity: Vd

input smiles: C[C@H](Nc1nccc(Nc2cc(C3CC3)[nH]n2)n1)c1ccc2[nH]ccc2c1
Vd: 4.5 L/kg

Then this compound:
Kindly note the recorded Vd for C[C@H](Nc1nccc(Nc2cc(C3CC3)[nH]n2)n1)c1ccc2[nH]ccc2n1 , which is 1.65 L/kg

---

Items are presented alongside their recorded logD.
Assay: Lipophilicity, logD of compound at pH 7.4
Format: physicochemical
Settings: buffer
Answer field: number only, no words.

input smiles: C[C@H](Nc1nccc(Nc2cc(C3CC3)[nH]n2)n1)c1ccc2[nH]ccc2c1
quantity: logD
observed value: 3.7

Then this compound:
Kindly note the recorded logD for C[C@H](Nc1nccc(Nc2cc(C3CC3)[nH]n2)n1)c1ccc2[nH]ccc2n1 , which is 2.7

---

Assay: Oral bioavailability in nude mouse at 25 mg/kg
Type: ADME, organism-based
Conditions: in vivo
quantity: bioavailability (%)
Respond with the bare value in %.

Kindly note the recorded bioavailability for C[C@H](Nc1nccc(Nc2cc(C3CC3)[nH]n2)n1)c1ccc2[nH]ccc2n1 , which is 4.8

---

Items are presented alongside their recorded fraction unbound.
Assay: Fraction unbound in mouse plasma
Type: ADME, cell-free
Answer field: number only, no words.

input smiles: C[C@H](Nc1nccc(Nc2cc(C3CC3)[nH]n2)n1)c1ccc2[nH]ccc2n1
fraction unbound: 0.045
--
input smiles: C[C@H](Nc1nccc(Nc2cc(C3CC3)[nH]n2)n1)c1cc2cc[nH]c2cn1
fraction unbound: 0.039
--
input smiles: C[C@H](Nc1nccc(Nc2cc(C3CC3)[nH]n2)n1)c1nc2cc[nH]c2cc1F
fraction unbound: 0.014
--
input smiles: C[C@H](Nc1nccc(Nc2cc([C@@H]3C[C@H]3F)[nH]n2)n1)c1ccc2[nH]ccc2n1
fraction unbound: 0.047

Then this compound:
Kindly note the recorded fraction unbound for C[C@H](Nc1nccc(Nc2cc(C3CC3)[nH]n2)n1)c1ccc2[nH]ccc2c1 , which is 0.008
